# procedure-text: Compound cytotoxicity, XTT-based colorimetric assay
# Assay type: cell-based
# experimental-parameters: human
# Method: Compound cytotoxicity and the corresponding CC50 values were determined using the same protocol as described in the antiviral assay except that uninfected cells were used. Cytotoxicity was assessed on day 4 in uninfected MT2 cells by using an XTT (2,3-bis[2-Methoxy-4-nitro-5-sulfophenyl]-2H-tetrazolium-5-carboxyanilide inner salt)-based colorimetric assay (Sigma-Aldrich, St Louis, Mo).
// reported CC50 at 4 days for each item listed
attribute-measured: CC50 at 4 days

[
  {
    "compound": "Cc1cc(C2(F)CCC(F)(F)CC2)nc2nc([C@H](Cc3cc(F)cc(F)c3)NC(=O)Cn3nc(C4CC4)c4c3C[C@@H]3C[C@H]43)n(-c3ccc(Cl)c4c(NS(C)(=O)=O)nn(CCN5[C@@H]6CC[C@H]5COC6)c34)c(=O)c12 (atropisomer, axis not shown; (P))",
    "attribute-measured": "CC50 at 4 days",
    "obs-value": "> 20 nM"
  },
  {
    "compound": "CS(=O)(=O)Nc1nn(CCN2[C@@H]3CC[C@H]2CC(F)(F)C3)c2c(-n3c([C@H](Cc4cc(F)cc(F)c4)NC(=O)Cn4nc(C(F)F)c5c4C(F)(F)[C@@H]4C[C@H]54)nc4nc(C5CCC(F)(F)CC5)ccc4c3=O)ccc(Cl)c12 (atropisomer, axis not shown; (P))",
    "attribute-measured": "CC50 at 4 days",
    "obs-value": "> 50 nM"
  }
]

* * *

# procedure-text: Compound cytotoxicity, XTT-based colorimetric assay
# Assay type: cell-based
# experimental-parameters: human; uninfected MT2 cells, day 4, XTT; read-out: CC50
# Procedure: Compound cytotoxicity and the corresponding CC50 values were determined using the same protocol as described in the antiviral assay except that uninfected cells were used. Cytotoxicity was assessed on day 4 in uninfected MT2 cells by using an XTT (2,3-bis[2-Methoxy-4-nitro-5-sulfophenyl]-2H-tetrazolium-5-carboxyanilide inner salt)-based colorimetric assay (Sigma-Aldrich, St Louis, Mo).

[
  {
    "molecule": "Cc1cc(C2CCC(F)(F)CC2)nc2nc([C@H](Cc3cc(F)cc(F)c3)NC(=O)Cn3nc(C(F)F)c4c3C(F)(F)[C@@H]3C[C@H]43)n(-c3ccc(Cl)c4c(NS(C)(=O)=O)nn(CC(=O)N(C)[C@@H]5CCOC5)c34)c(=O)c12 (atropisomer, axis not shown; (P)) [Example 405]",
    "CC50 at 4 days": "> 20 nM"
  },
  {
    "molecule": "CS(=O)(=O)Nc1nn(CCN2C[C@H](F)C[C@H](F)C2)c2c(-n3c([C@H](Cc4cc(F)cc(F)c4)NC(=O)Cn4nc(C(F)F)c5c4C(F)(F)[C@@H]4C[C@H]54)nc4nc(C5CCC(F)(F)CC5)cc(C5CC5)c4c3=O)ccc(Cl)c12 (atropisomer, axis not shown; (P)) [Example 322]",
    "CC50 at 4 days": "> 50 nM"
  },
  {
    "molecule": "C[C@@H]1CN(CCn2nc(NS(C)(=O)=O)c3c(Cl)ccc(-n4c([C@H](Cc5cc(F)cc(F)c5)NC(=O)Cn5nc(C(F)F)c6c5C(F)(F)[C@@H]5C[C@H]65)nc5nc(C6CCC(F)(F)CC6)cc(CN6C[C@@H](C)O[C@@H](C)C6)c5c4=O)c32)C[C@H](C)O1 (atropisomer, axis not shown; (P)) [Example 528]",
    "CC50 at 4 days": "> 20 nM"
  }
]

* * *

List of CC50 at 4 days values.
# procedure-text: Compound cytotoxicity, XTT-based colorimetric assay
# Format: cell-based
# experimental-parameters: human; uninfected MT2 cells, day 4, XTT; read-out: CC50
# Method: Compound cytotoxicity and the corresponding CC50 values were determined using the same protocol as described in the antiviral assay except that uninfected cells were used. Cytotoxicity was assessed on day 4 in uninfected MT2 cells by using an XTT (2,3-bis[2-Methoxy-4-nitro-5-sulfophenyl]-2H-tetrazolium-5-carboxyanilide inner salt)-based colorimetric assay (Sigma-Aldrich, St Louis, Mo).
attribute-measured: CC50 at 4 days

[
  {
    "compound": "COCCCn1nc(NS(C)(=O)=O)c2c(Cl)ccc(-n3c([C@H](Cc4cc(F)cc(F)c4)NC(=O)Cn4nc(C(F)F)c5c4C(F)(F)[C@@H]4C[C@H]54)nc4nc(C5CCC(F)(F)CC5)cc(NCCN5CCOC(C)(C)C5)c4c3=O)c21 (atropisomer, axis not shown; (P)) [Example 476]",
    "obs-value": "> 20 nM"
  },
  {
    "compound": "COCCCn1nc(NS(C)(=O)=O)c2c(Cl)ccc(-n3c([C@H](Cc4cc(F)cc(F)c4)NC(=O)Cn4nc(C(F)F)c5c4C(F)(F)[C@@H]4C[C@H]54)nc4nc(C5CCC(F)(F)CC5)cc(NCC5(C)CCOCC5)c4c3=O)c21 (atropisomer, axis not shown; (P)) [Example 485]",
    "obs-value": "> 20 nM"
  },
  {
    "compound": "CS(=O)(=O)Nc1nn(CCN2CCC(F)(F)CC2)c2c(-n3c([C@H](Cc4cc(F)cc(F)c4)NC(=O)Cn4nc(C(F)F)c5c4C(F)(F)[C@@H]4C[C@H]54)nc4nc(C5CCC(F)(F)CC5)cc(CF)c4c3=O)ccc(Cl)c12 (atropisomer, axis not shown; (P)) [Example 514]",
    "obs-value": "> 20 nM"
  }
]

* * *

# procedure-text: Compound cytotoxicity, XTT-based colorimetric assay
# Format: cell-based
# experimental-parameters: human; uninfected MT2 cells, day 4, XTT; read-out: CC50

[
  {
    "compound": "CS(=O)(=O)Nc1nn(CCN2CCOCC2)c2c(-n3c([C@H](Cc4cc(F)cc(F)c4)NC(=O)Cn4nc(C5CC5)c5c4C[C@@H]4C[C@H]54)nc4nc(C5CCC(F)(F)CC5)cc(C(F)F)c4c3=O)ccc(Cl)c12",
    "CC50 at 4 days": "> 50 nM"
  },
  {
    "compound": "COCCCn1nc(NS(C)(=O)=O)c2c(Cl)ccc(-n3c([C@H](Cc4cc(F)cc(F)c4)NC(=O)Cn4nc(C(F)F)c5c4C(F)(F)[C@@H]4C[C@H]54)nc4nc(C5CCC(F)(F)CC5)cc(NCCCN5CCCCC5)c4c3=O)c21 (atropisomer, axis not shown; (P))",
    "CC50 at 4 days": "> 20 nM"
  },
  {
    "compound": "COCCCn1nc(NS(C)(=O)=O)c2c(Cl)ccc(-n3c([C@H](Cc4cc(F)cc(F)c4)NC(=O)Cn4nc(C(F)F)c5c4C(F)(F)[C@@H]4C[C@H]54)nc4nc(C5CCC(F)(F)CC5)cc(CN5C[C@@H](F)[C@@H](F)C5)c4c3=O)c21 (atropisomer, axis not shown; (P))",
    "CC50 at 4 days": "> 20 nM"
  },
  {
    "compound": "COCCCn1nc(NS(C)(=O)=O)c2c(Cl)ccc(-n3c([C@H](Cc4cc(F)cc(F)c4)NC(=O)Cn4nc(C(F)F)c5c4C(F)(F)[C@@H]4C[C@H]54)nc4nc(C5CCC(F)(F)CC5)cc(NCCN5CCC6(CC5)CC6)c4c3=O)c21 (atropisomer, axis not shown; (P))",
    "CC50 at 4 days": "> 20 nM"
  },
  {
    "compound": "CC1(F)CCN(CCn2nc(NS(C)(=O)=O)c3c(Cl)ccc(-n4c([C@H](Cc5cc(F)cc(F)c5)NC(=O)Cn5nc(C(F)F)c6c5C(F)(F)[C@@H]5C[C@H]65)nc5nc(C6CCC(F)(F)CC6)ccc5c4=O)c32)CC1 (atropisomer, axis not shown; (P))",
    "CC50 at 4 days": "> 50 nM"
  },
  {
    "compound": "Cc1cc(C2(F)CCC(F)(F)CC2)nc2nc([C@H](Cc3cc(F)cc(F)c3)NC(=O)Cn3nc(C4CC4)c4c3C(F)(F)[C@@H]3C[C@H]43)n(-c3ccc(Cl)c4c(NS(C)(=O)=O)nn(CCN5C[C@@H](C)O[C@@H](C)C5)c34)c(=O)c12 (atropisomer, axis not shown; (P))",
    "CC50 at 4 days": "> 20 nM"
  },
  {
    "compound": "CS(=O)(=O)Nc1nn(CCN2CC(F)(F)C2)c2c(-n3c([C@H](Cc4cc(F)cc(F)c4)NC(=O)Cn4nc(C(F)F)c5c4C(F)(F)[C@@H]4C[C@H]54)nc4nc(C5CCC(F)(F)CC5)cc(C(F)F)c4c3=O)ccc(Cl)c12 (atropisomer, axis not shown; (P))",
    "CC50 at 4 days": "> 50 nM"
  }
]

* * *

# procedure-text: Compound cytotoxicity, XTT-based colorimetric assay
# Assay type: cell-based
# experimental-parameters: human; uninfected MT2 cells, day 4, XTT; read-out: CC50
Reported CC50 at 4 days by item:
attribute-measured: CC50 at 4 days

[
  {
    "molecule": "CS(=O)(=O)Nc1nn(CCN2C[C@H]3CC[C@@H](C2)O3)c2c(-n3c([C@H](Cc4cc(F)cc(F)c4)NC(=O)Cn4nc(C5CC5)c5c4C[C@@H]4C[C@H]54)nc4nc(C5CCC(F)(F)CC5)cc(C5CC5)c4c3=O)ccc(Cl)c12 (atropisomer, axis not shown; (P)) [Example 325]",
    "obs-value": "> 50 nM"
  },
  {
    "molecule": "CCOCCn1nc(NS(C)(=O)=O)c2c(Cl)ccc(-n3c([C@H](Cc4cc(F)cc(F)c4)NC(=O)Cn4nc(C(F)F)c5c4C(F)(F)[C@@H]4C[C@H]54)nc4nc(C5CCC(F)(F)CC5)cc(C)c4c3=O)c21 (atropisomer, axis not shown; (P)) [Example 60]",
    "obs-value": "> 50 nM"
  },
  {
    "molecule": "Cc1cc(C2CCC(F)(F)CC2)nc2nc([C@H](Cc3cc(F)cc(F)c3)NC(=O)Cn3nc(C(F)F)c4c3C(F)(F)[C@@H]3C[C@H]43)n(-c3ccc(Cl)c4c(NS(C)(=O)=O)nn(CCOCC(F)(F)F)c34)c(=O)c12 (atropisomer, axis not shown; (P)) [Example 72]",
    "obs-value": "> 50 nM"
  },
  {
    "molecule": "CC(C)[C@H]1CN(CCn2nc(NS(C)(=O)=O)c3c(Cl)ccc(-n4c([C@H](Cc5cc(F)cc(F)c5)NC(=O)Cn5nc(C6CC6)c6c5C[C@@H]5C[C@H]65)nc5nc(C6CCC(F)(F)CC6)cc(C(F)F)c5c4=O)c32)CCO1 (atropisomer, axis not shown; (P)) [Example 467]",
    "obs-value": "> 20 nM"
  },
  {
    "molecule": "Cc1cc(C2CCC(F)(F)CC2)nc2nc([C@H](Cc3cc(F)cc(F)c3)NC(=O)Cn3nc(C4CC4)c4c3C[C@@H]3C[C@H]43)n(-c3ccc(Cl)c4c(NS(C)(=O)=O)nn(CCN5C[C@H]6CC[C@@H](C5)O6)c34)c(=O)c12 (atropisomer, axis not shown; (P)) [Example 4]",
    "obs-value": "> 50 nM"
  },
  {
    "molecule": "CCc1cc(C2CCC(F)(F)CC2)nc2nc([C@H](Cc3cc(F)cc(F)c3)NC(=O)Cn3nc(C(F)F)c4c3C(F)(F)[C@@H]3C[C@H]43)n(-c3ccc(Cl)c4c(NS(C)(=O)=O)nn(CCOC)c34)c(=O)c12 (atropisomer, axis not shown; (P)) [Example 632]",
    "obs-value": "> 50 nM"
  },
  {
    "molecule": "Cc1cc(C2CCC(F)(F)CC2)nc2nc([C@H](Cc3cc(F)cc(F)c3)NC(=O)Cn3nc(C4CC4)c4c3C(F)(F)[C@@H]3C[C@H]43)n(-c3ccc(Cl)c4c(NS(C)(=O)=O)nn(CCN5CCOCC5)c34)c(=O)c12 (atropisomer, axis not shown; (P)) [Example 112]",
    "obs-value": "> 50 nM"
  }
]
